Give AC50 for every item shown.

Specify the recorded AC50 for NC(=O)OCC(COC(N)=O)c1ccccc1 [FELBAMATE] , system: Beta-2 adrenergic receptor (Homo sapiens, UniProt P07550). > 10 µM

Specify the recorded AC50 for "CNS(=O)(=O)Cc1ccc2[nH]cc(CCN(C)C)c2c1" , system: Beta-2 adrenergic receptor (Homo sapiens, UniProt P07550). > 10 µM

Specify the recorded AC50 for "C[C@H]1COc2c(C3(N)CC3)c(F)cc3c(=O)c(C(=O)O)cn1c23" , system: Beta-2 adrenergic receptor (Homo sapiens, UniProt P07550). > 10 µM

Specify the recorded AC50 for CCC(C(=O)O)c1ccc(N2Cc3ccccc3C2=O)cc1 (centres undefined) , system: Beta-2 adrenergic receptor (Homo sapiens, UniProt P07550). > 30 µM

Specify the recorded AC50 for "CCOC(=O)[C@H](CCc1ccccc1)N[C@@H](C)C(=O)N1[C@H](C(=O)O)C[C@@H]2CCC[C@@H]21" , system: Beta-2 adrenergic receptor (Homo sapiens, UniProt P07550). > 10 µM

Specify the recorded AC50 for "Cc1cccc(Nc2ccccc2C(=O)O)c1C" , system: Beta-2 adrenergic receptor (Homo sapiens, UniProt P07550). > 10 µM

Specify the recorded AC50 for "CN(C)CCC=C1c2ccccc2C=Cc2ccccc21" , system: Beta-2 adrenergic receptor (Homo sapiens, UniProt P07550). > 10 µM

Specify the recorded AC50 for "O=C(O)CCCCCCCC(=O)O" , system: Beta-2 adrenergic receptor (Homo sapiens, UniProt P07550). > 10 µM

Specify the recorded AC50 for CCC(C)n1ncn(-c2ccc(N3CCN(c4ccc(OCC5COC(Cn6cncn6)(c6ccc(Cl)cc6Cl)O5)cc4)CC3)cc2)c1=O (centres undefined) , system: Beta-2 adrenergic receptor (Homo sapiens, UniProt P07550). > 30 µM

Specify the recorded AC50 for "Cc1cn([C@H]2C[C@H](N=[N+]=[N-])[C@@H](CO)O2)c(=O)[nH]c1=O" , system: Beta-2 adrenergic receptor (Homo sapiens, UniProt P07550). > 10 µM

Specify the recorded AC50 for OC(CNCC(O)C1CCc2cc(F)ccc2O1)C1CCc2cc(F)ccc2O1 (centres undefined) , system: Beta-2 adrenergic receptor (Homo sapiens, UniProt P07550). 0.07 µM

Specify the recorded AC50 for "Cc1c(C(=O)NN2CCCCC2)nn(-c2ccc(Cl)cc2Cl)c1-c1ccc(Cl)cc1" , system: Beta-2 adrenergic receptor (Homo sapiens, UniProt P07550). > 10 µM

Specify the recorded AC50 for "Clc1ccc2nsnc2c1NC1=NCCN1" , system: Beta-2 adrenergic receptor (Homo sapiens, UniProt P07550). > 10 µM

Specify the recorded AC50 for "C#C[C@]1(O)CC[C@H]2[C@@H]3CCc4cc(OC5CCCC5)ccc4[C@H]3CC[C@@]21C" , system: Beta-2 adrenergic receptor (Homo sapiens, UniProt P07550). > 10 µM

Specify the recorded AC50 for NS(=O)(=O)Cc1noc2ccccc12 [ZONISAMIDE] , system: Beta-2 adrenergic receptor (Homo sapiens, UniProt P07550). > 10 µM

Specify the recorded AC50 for O=P1(NCCCl)OCCCN1CCCl (centres undefined) [IFOSFAMIDE] , system: Beta-2 adrenergic receptor (Homo sapiens, UniProt P07550). > 30 µM

Specify the recorded AC50 for "O=C1Nc2ccc(Cl)cc2[C@@](C#CC2CC2)(C(F)(F)F)O1" , system: Beta-2 adrenergic receptor (Homo sapiens, UniProt P07550). > 30 µM

Specify the recorded AC50 for CN1C(=O)C(O)N=C(c2ccccc2)c2cc(Cl)ccc21 (centres undefined) , system: Beta-2 adrenergic receptor (Homo sapiens, UniProt P07550). > 10 µM

Specify the recorded AC50 for C=CCN1CCCC1CNC(=O)c1cc(S(N)(=O)=O)cc(OC)c1OC (centres undefined) [VERALIPRIDE] , system: Beta-2 adrenergic receptor (Homo sapiens, UniProt P07550). > 30 µM

###

For Growth hormone secretagogue receptor type 1 (Homo sapiens, UniProt Q92847), measured AC50 is reported for the entries below.

Please list AC50 recorded for the molecule CC1=C(C(=O)O)N2C(=O)[C@@H](NC(=O)[C@H](N)c3ccccc3)[C@H]2SC1 [CEPHALEXIN ANHYDROUS] > 30 µM

Please list AC50 recorded for the molecule "O=C(O)/C=C/c1ccc(Cn2ccnc2)cc1" > 30 µM

Please list AC50 recorded for the molecule "CC(=O)O[C@H]1C[C@@H]2CC[C@@H]3[C@H](CC[C@@]4(C)[C@H]3C[C@H]([N+]3(C)CCCCC3)[C@@H]4OC(C)=O)[C@@]2(C)C[C@@H]1N1CCCCC1" > 30 µM

Please list AC50 recorded for the molecule "c1cnc(N2CCN(Cc3ccc4c(c3)OCO4)CC2)nc1" 30 µM

Please list AC50 recorded for the molecule CN1C(=O)CCS(=O)(=O)C1c1ccc(Cl)cc1 (stereo not drawn) > 10 µM

Please list AC50 recorded for the molecule "Cc1c(C(=O)NN2CCCCC2)nn(-c2ccc(Cl)cc2Cl)c1-c1ccc(Cl)cc1" 25 µM

Please list AC50 recorded for the molecule "CC=CC(=O)N(CC)c1ccccc1C" > 10 µM

Please list AC50 recorded for the molecule O=C(NCCN1CCOCC1)c1ccc(Cl)cc1 [MOCLOBEMIDE] > 10 µM

Please list AC50 recorded for the molecule "CCOC(=O)[C@H](CCc1ccccc1)N[C@@H](C)C(=O)N1[C@H](C(=O)O)C[C@@H]2CCC[C@@H]21" > 30 µM

Please list AC50 recorded for the molecule "Cc1ccc(-c2cc(C(F)(F)F)nn2-c2ccc(S(N)(=O)=O)cc2)cc1" > 10 µM

Please list AC50 recorded for the molecule "CCOc1ccc(Cc2cc([C@@H]3O[C@H](CO)[C@@H](O)[C@H](O)[C@H]3O)ccc2Cl)cc1" > 30 µM

Please list AC50 recorded for the molecule "CN(C)CCc1c[nH]c2ccc(C[C@H]3COC(=O)N3)cc12" > 30 µM

Please list AC50 recorded for the molecule "Cc1cn([C@H]2C=C[C@@H](CO)O2)c(=O)[nH]c1=O" > 30 µM

Please list AC50 recorded for the molecule CNC(C)CCC=C(C)C (stereo not drawn) > 30 µM

Please list AC50 recorded for the molecule "N#Cc1ccc([C@H]2CCc3cncn32)c(F)c1" > 10 µM

Please list AC50 recorded for the molecule "CC(C)Cn1cnc2c(N)nc3ccccc3c21" > 10 µM

Please list AC50 recorded for the molecule "CN1C(C(=O)Nc2ccccn2)=C(O)c2sc(Cl)cc2S1(=O)=O" > 30 µM

Please list AC50 recorded for the molecule "COc1ccc2c3c1O[C@H]1C(=O)CC[C@@]4(O)[C@@H](C2)N(C)CC[C@]314" > 30 µM

###

Give AC50 for every item shown.
- experimental-system: Beta-1 adrenergic receptor (Homo sapiens); also: assay procedure not described here
- Sequence (P08588 whole entry): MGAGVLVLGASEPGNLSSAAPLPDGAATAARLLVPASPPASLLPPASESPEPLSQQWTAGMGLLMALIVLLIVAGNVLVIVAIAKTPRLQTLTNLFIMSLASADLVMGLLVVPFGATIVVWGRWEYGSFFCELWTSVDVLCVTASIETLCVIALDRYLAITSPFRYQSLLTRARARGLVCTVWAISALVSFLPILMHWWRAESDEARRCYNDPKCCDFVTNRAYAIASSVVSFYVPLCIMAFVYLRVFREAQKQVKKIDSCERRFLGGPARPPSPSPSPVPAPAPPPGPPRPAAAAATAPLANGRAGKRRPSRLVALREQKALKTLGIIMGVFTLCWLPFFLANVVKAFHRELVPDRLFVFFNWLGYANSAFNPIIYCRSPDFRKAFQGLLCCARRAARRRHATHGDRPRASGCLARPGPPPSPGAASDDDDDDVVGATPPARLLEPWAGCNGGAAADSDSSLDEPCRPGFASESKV
- Type: functional

Please list AC50 recorded for the molecule "CO[C@H]1C[C@@H]2CC[C@@H](C)[C@@](O)(O2)C(=O)C(=O)N2CCCC[C@H]2C(=O)O[C@H]([C@H](C)C[C@@H]2CC[C@@H](O)[C@H](OC)C2)CC(=O)[C@H](C)/C=C(\C)[C@@H](O)[C@@H](OC)C(=O)[C@H](C)C[C@H](C)/C=C/C=C/C=C/1C" > 10 µM

Please list AC50 recorded for the molecule "CCCCN1C[C@H](O)[C@@H](O)[C@H](O)[C@H]1CO" > 30 µM

Please list AC50 recorded for the molecule "O=[N+]([O-])c1cn2c(n1)OC[C@@H](OCc1ccc(OC(F)(F)F)cc1)C2" > 10 µM

Please list AC50 recorded for the molecule "C[C@H](N)[C@H](O)c1cccc(O)c1" 14.3 µM

Please list AC50 recorded for the molecule C=CCN1CCCC1CNC(=O)c1cc(S(N)(=O)=O)cc(OC)c1OC (stereo unspecified) [VERALIPRIDE] > 30 µM

Please list AC50 recorded for the molecule "CNS(=O)(=O)Cc1ccc2[nH]cc(CCN(C)C)c2c1" > 10 µM

Please list AC50 recorded for the molecule "Nc1ccn([C@H]2CC[C@@H](CO)O2)c(=O)n1" > 10 µM

Please list AC50 recorded for the molecule O=[N+]([O-])O[C@@H]1CO[C@H]2[C@@H]1OC[C@@H]2O [ISOSORBIDE MONONITRATE] > 10 µM

Please list AC50 recorded for the molecule "CCCCCNC(=N)N/N=C/c1c[nH]c2ccc(OC)cc12" 7.02 µM

Please list AC50 recorded for the molecule "CC[C@H]1CN2CCc3cc(OC)c(OC)cc3[C@@H]2C[C@@H]1C[C@H]1NCCc2cc(OC)c(OC)cc21" > 30 µM

Please list AC50 recorded for the molecule CCCC1O[C@@H]2C[C@H]3[C@@H]4CCC5=CC(=O)C=C[C@]5(C)[C@H]4[C@@H](O)C[C@]3(C)[C@]2(C(=O)CO)O1 (stereo partly specified) [BUDESONIDE] > 10 µM

Please list AC50 recorded for the molecule NS(=O)(=O)Cc1noc2ccccc12 [ZONISAMIDE] > 10 µM

Please list AC50 recorded for the molecule "C[C@]12CC[C@H]3[C@@H](CCC4=CC(=O)CC[C@@]43C)[C@@H]1CC[C@@H]2O" > 10 µM

Please list AC50 recorded for the molecule "Cc1cccc(Nc2ccccc2C(=O)O)c1C" > 10 µM

Please list AC50 recorded for the molecule "COC(=O)[C@H]1[C@H]2C[C@@H]3c4[nH]c5cc(OC)ccc5c4CCN3C[C@H]2C[C@@H](OC(=O)/C=C/c2cc(OC)c(OC)c(OC)c2)[C@@H]1OC" > 10 µM

Please list AC50 recorded for the molecule "Nc1nc(N)nc(-c2cc(Cl)ccc2Cl)n1" > 30 µM
